Cited source for all entries: patent US4405634A

test.target: TXA2 synthetase (Equus caballus, UniProt A0A9L0T8T9)
Construct: arachidonic acid substrate, thromboxane B2 measured by radio-TLC
Sequence (A0A9L0T8T9 2-534): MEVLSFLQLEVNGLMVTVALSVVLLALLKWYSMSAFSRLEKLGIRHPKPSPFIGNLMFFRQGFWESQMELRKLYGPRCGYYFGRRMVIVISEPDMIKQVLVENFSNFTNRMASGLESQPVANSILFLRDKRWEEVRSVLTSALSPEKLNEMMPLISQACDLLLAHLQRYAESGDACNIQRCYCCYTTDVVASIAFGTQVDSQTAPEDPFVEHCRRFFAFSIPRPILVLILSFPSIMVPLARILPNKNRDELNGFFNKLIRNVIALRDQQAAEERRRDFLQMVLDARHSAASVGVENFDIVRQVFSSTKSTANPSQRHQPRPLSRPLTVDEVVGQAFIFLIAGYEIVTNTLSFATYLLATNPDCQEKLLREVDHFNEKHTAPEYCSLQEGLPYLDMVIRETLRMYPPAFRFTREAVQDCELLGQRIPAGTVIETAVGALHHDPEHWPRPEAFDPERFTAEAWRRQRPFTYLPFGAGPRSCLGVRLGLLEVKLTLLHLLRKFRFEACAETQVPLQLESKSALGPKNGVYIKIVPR
Sequence (F7BQR7 24-599 partner): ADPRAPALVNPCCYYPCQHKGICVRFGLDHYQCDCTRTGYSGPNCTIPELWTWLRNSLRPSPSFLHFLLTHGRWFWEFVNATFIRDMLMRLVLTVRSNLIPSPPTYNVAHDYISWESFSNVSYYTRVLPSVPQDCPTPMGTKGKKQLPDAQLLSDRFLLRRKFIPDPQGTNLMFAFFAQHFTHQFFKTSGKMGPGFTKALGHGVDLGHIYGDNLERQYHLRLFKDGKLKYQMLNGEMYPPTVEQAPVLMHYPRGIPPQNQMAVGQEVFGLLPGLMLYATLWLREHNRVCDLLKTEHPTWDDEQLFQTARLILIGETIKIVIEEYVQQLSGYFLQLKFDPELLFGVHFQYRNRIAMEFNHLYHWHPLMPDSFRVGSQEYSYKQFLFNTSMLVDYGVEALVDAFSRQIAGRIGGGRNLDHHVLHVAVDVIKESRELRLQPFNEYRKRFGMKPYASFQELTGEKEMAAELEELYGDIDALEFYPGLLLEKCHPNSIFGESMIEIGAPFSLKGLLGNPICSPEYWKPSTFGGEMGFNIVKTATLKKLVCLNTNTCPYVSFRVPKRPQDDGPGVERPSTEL
assay.text: thromboxane production from labelled arachidonic acid by homogenised horse platelets (concentration to reduce the enzyme activity by 50%)
Assay type: biochemical
condition.description: horse platelet homogenate, pH 7.4, 5 min preincubation, 3 min at 37° C. with arachidonic acid, read-out: ED50 (the source's name) (converted)
attribute.measured: IC50 (µM)
Write the answer as a number in µM, unit excluded.

Consider the worked cases shown below.
> print(dat)
                                   molecule  attribute.measured  numeric.value
1  Cc1cc(C)c(Cn2ccnc2)c(C)c1 [1-(2,4,6-Trimethylbenzyl)imidazole, 1-(2,4,6-trimethylbenzyl)imidazole]                IC50             17
2                 Clc1cccc(Cl)c1C=CCn1ccnc1                IC50           3.95
3  Cc1ccc(Cn2ccnc2)cc1C [1-(3,4-Dimethylbenzyl)imidazole, 1-(3,4-dimethylbenzyl)imidazole]                IC50           32.2

(Q) For the molecule "Clc1ccc(C=CCn2ccnc2)c(Cl)c1" , what IC50 is on record?
(A) 16.2
